- test.protocol: Viability qHTS for spleen associated tyrosine kinase inhibitor (SYKi) naive MV4-11 cells (AID 1963823); also: nearly all actives have a fitted effect of over 40% in size
- condition.description: MV4-11 AML viability, CellTiter-Glo luminescence, 72 h; series mostly up to 45 µM
Records with an inconclusive call do not appear. Calls of active or inactive are those of the source. Calls follow the shape of the dose curve; as a rule, active = well fitted cell-killing curve with a large enough effect; inconclusive = small, poorly fitted or top-dose-only effect, or effect the other way; inactive = no such curve, though single readings can be large or run the other way.
Bench note: report the call from TRUE = active, FALSE = inactive

Task: Which outcome was entered for the compound "COC1=CC(=O)O[C@@H](CCc2ccccc2)C1" in this test?
Output: FALSE

Task: For this compound, state the assay outcome: "O=C1CC[C@@]2(O)[C@H]3Cc4ccc(O)c5c4[C@@]2(CCN3CC2CC2)[C@H]1O5"
Output: FALSE

Task: Record lookup: outcome of this test for "CC[C@H]1C2CC3[C@@H]4N(C)c5ccccc5[C@]45C[C@@H]([C@H]2[C@H]5O)N3[C@@H]1O" ?
Output: FALSE

Task: Lab log entry: "Cc1ccccc1C1=CCN(C)CC1" — outcome as called in the assay?
Output: FALSE

Task: # fetch the recorded call for CCCC[N+]1(C)[C@H]2CC(OC(=O)[C@H](CO)c3ccccc3)C[C@H]1[C@H]1O[C@H]12 (some centres not stated) here
Output: FALSE

Task: Hi, do you know how "CN=C(NS(=O)(=O)c1ccc(Cl)cc1)N1C[C@H](c2ccccc2)C(c2ccc(Cl)cc2)=N1" came out in this test?
Output: TRUE

Task: Identify the outcome logged in this assay for the compound shown: "N#Cc1ccccc1-c1cc(-c2ccccn2)cn(-c2ccccc2)c1=O"
Output: FALSE

Task: Status in this test for "CN1Cc2c(ccc3c2OCO3)[C@@H]2[C@H]1c1cc3c(cc1C[C@@H]2O)OCO3" ?
Output: TRUE

Task: Just curious, what result did Cc1sc2c(c1C)C(c1ccc(Cl)cc1)=NC(CC(=O)Nc1ccc(O)cc1)c1nnc(C)n1-2 (configuration not stated) get here?
Output: TRUE

Task: Check the results log: what was the call for "O=C(O)CCCCCCNC1c2ccccc2CCc2ccccc21" ?
Output: TRUE

Task: Which outcome was assigned to "CCCSP(=O)(OCC)SCCC" in this test?
Output: TRUE

Task: Please share the test call associated with "C[N+]1(CCC(C(N)=O)(c2ccccc2)c2ccccc2)CCCCC1" .
Output: FALSE

Task: How did this test come out for COCC1OC(=O)c2coc3c2C1(C)C1=C(C3=O)C2CCC(=O)C2(C)CC1O (configuration not stated) ?
Output: FALSE

Task: What outcome does the record of this test show for "C=CCC1([C@H](C)CCC)C(=O)NC(=O)NC1=O" ?
Output: FALSE

Task: Any idea what this test logged for COC1C(O)C(OC2CCC3(C=O)C(CCC4C3CCC3(C)C(C5=CC(=O)OC5)CCC43O)C2)OC(C)C1OC1OC(CO)C(O)C(O)C1O (configuration not stated) ?
Output: TRUE

Task: Called result for "C=C1[C@@]23C(=O)O[C@H](C)[C@]24O[C@@]2(C(=C)[C@]5(C=CC(=O)OC5(C)C)CC[C@]32C)[C@H](O)[C@@]1(C)OC4=O"
Output: FALSE

Task: Query: recorded result category for CC1NCCOC1c1ccccc1 (configuration not stated) in this test
Output: FALSE

Task: Give the logged outcome of this assay for the following compound: O=C(NC(=O)c1c(F)cccc1F)Nc1cc(Cl)c(OC(F)(F)C(F)C(F)(F)F)cc1Cl (configuration not stated)
Output: TRUE

Task: Name the outcome recorded for CCC1(c2ccccc2)CCC(=O)NC1=O (configuration not stated) in the assay.
Output: TRUE

Task: What did the test return for "COc1cc(C)[nH]c(=O)c1CNC(=O)c1c(C)n([C@H](C)C2CCOCC2)c2ccccc12" ?
Output: FALSE

Task: Field: outcome | Entry: "COc1ccn(C)c(=O)c1C#N"
Output: FALSE

Task: How did this test come out for "CO[C@H]1C[C@H](O[C@H]2CC[C@]3(CO)[C@H]4CC[C@]5(C)[C@@H](C6=CC(=O)OC6)CC[C@]5(O)[C@@H]4CC[C@]3(O)C2)O[C@H](C)[C@H]1O" ?
Output: TRUE

Task: What is the recorded call for this compound in the test? "C[C@]12CC[C@H]3[C@@H]([C@H](O)CC4=CC(=O)CC[C@@]43C)[C@@H]1CC[C@@H]2O"
Output: FALSE

Task: Dear all, I need the recorded test outcome for CC(C)(C)NCC(O)c1cc(Cl)c(N)c(Cl)c1 (configuration not stated) , thank you.
Output: FALSE

Task: Give the logged outcome of this assay for the following compound: "C[C@@H](N)[C@@H](O)c1ccccc1"
Output: FALSE

Task: Short answer needed: outcome of this test for Fc1cc(F)c2c(c1)[C@H]1C=CC[C@H]1C(c1cccnc1)N2 (some centres not stated) ?
Output: TRUE

Task: Could you kindly confirm the outcome this assay logged for "O=C(O)C(Cl)Cl" ?
Output: FALSE
